For each record, write down the corresponding interaction score.
# Tested on: T1, 4H376-AA
# T1 chain: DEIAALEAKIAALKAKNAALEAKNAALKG
# Assay procedure: two-hybrid library CCmax;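 further: natural log of median RNA to DNA barcode read ratio; higher means stronger binding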
# Experimental parameters: mean of both orientations
Just the number, please.

Fill in: interaction score of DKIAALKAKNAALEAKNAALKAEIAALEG [4H3001-AA] is ___ -1.69

Fill in: interaction score of DKNAALEAKIAALEAEIAALKAENAALKG [4H3340-AA] is ___ -1.48

Fill in: interaction score of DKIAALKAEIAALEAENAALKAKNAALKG [4H2592-AA] is ___ 0.226

Fill in: interaction score of DENAALKAENAALKAEIAALKAEIAALKG [4H1738-AA] is ___ -1.75
